For each record, write down the corresponding kobs, 50-54 kDa.
tested on: calf thymus 50-54 kDa immunophilin; assay: Rotamase (peptidyl-prolyl cis-trans isomerase) assay, 50-54 kDa immunophilin; assay type: biochemical; details: rotamase activity with this peptide as substrate
Starred links: 1 amine or outer side, 2 acyl side, 3 side chain; linkers in the order of their positions; H or OH if unused. Residues, ends and D or L forms follow the SMILES beside them. *: point of attachment. pNA = O=[N+]([O-])c1ccc(N*)cc1; Suc = O=C(CCC(=O)[*:2])[*:1]
One number for each entry, in s⁻¹.

Return reported kobs, 50-54 kDa values for all items listed beneath this line.
1. CC(C)C[C@H](NC(=O)[C@H](C)NC(=O)CCC(=O)O)C(=O)N1CCC[C@H]1C(=O)N[C@@H](Cc1ccccc1)C(=O)Nc1ccc([N+](=O)[O-])cc1 [Suc--Ala--Leu--Pro--Phe--pNA] (Suc-ALPF-pNA)
2. CCCC[C@H](NC(=O)[C@H](C)NC(=O)CCC(=O)O)C(=O)N1CCC[C@H]1C(=O)N[C@@H](Cc1ccccc1)C(=O)Nc1ccc([N+](=O)[O-])cc1
3. C[C@H](NC(=O)CCC(=O)O)C(=O)N[C@@H](Cc1ccccc1)C(=O)N1CCC[C@H]1C(=O)N[C@@H](Cc1ccccc1)C(=O)Nc1ccc([N+](=O)[O-])cc1

[out]
1. 0.00267
2. 0.00417
3. 0.003

---

tested on: 10-12 kDa immunophilin; assay: Rotamase (peptidyl-prolyl cis-trans isomerase) assay, 10-12 kDa immunophilin; type: biochemical; settings: rotamase activity with this peptide as substrate
Starred links: 1 amine or outer side, 2 acyl side, 3 side chain; linkers in the order of their positions; H or OH if unused. Residues, ends and D or L forms follow the SMILES beside them. *: point of attachment. pNA = O=[N+]([O-])c1ccc(N*)cc1; Suc = O=C(CCC(=O)[*:2])[*:1]
METRIC: kobs, 10-12 kDa (min^-1)
Numbers only, in min^-1.

[in] Form field: reported kobs, 10-12 kDa of CC(C)C[C@H](NC(=O)[C@H](C)NC(=O)CCC(=O)O)C(=O)N1CCC[C@H]1C(=O)N[C@@H](Cc1ccccc1)C(=O)Nc1ccc([N+](=O)[O-])cc1 [Suc--Ala--Leu--Pro--Phe--pNA] (Suc-ALPF-pNA)
[out] 1.61

Now let's try a different one.
[in] Form field: reported kobs, 10-12 kDa of O=C(O)CCC(=O)N[C@@H](Cc1ccccc1)C(=O)N1CCC[C@H]1C(=O)N[C@@H](Cc1ccccc1)C(=O)Nc1ccc([N+](=O)[O-])cc1 [Suc--Phe--Pro--Phe--pNA] (Suc-Phe-Pro-Phe-pNA)
[out] 0.63

---

system: calf thymus 50-54 kDa immunophilin; experiment: Rotamase (peptidyl-prolyl cis-trans isomerase) assay, 50-54 kDa immunophilin; assay type: biochemical; conditions: rotamase activity with this peptide as substrate
Starred links: 1 amine or outer side, 2 acyl side, 3 side chain; linkers in the order of their positions; H or OH if unused. Residues, ends and D or L forms follow the SMILES beside them. *: point of attachment. pNA = O=[N+]([O-])c1ccc(N*)cc1; Suc = O=C(CCC(=O)[*:2])[*:1]
For each record, write down the corresponding kobs, 50-54 kDa.
Answers are plain numbers, in s⁻¹.

Return reported kobs, 50-54 kDa values for all items listed beneath this line.
1. CC[C@H](C)[C@H](NC(=O)[C@H](C)NC(=O)CCC(=O)O)C(=O)N1CCC[C@H]1C(=O)N[C@@H](Cc1ccccc1)C(=O)Nc1ccc([N+](=O)[O-])cc1 [Suc--Ala--Ile--Pro--Phe--pNA] (Suc-AIPF-pNA)
2. C[C@H](NC(=O)CCC(=O)O)C(=O)N[C@@H](CCC(N)=O)C(=O)N1CCC[C@H]1C(=O)N[C@@H](Cc1ccccc1)C(=O)Nc1ccc([N+](=O)[O-])cc1 [Suc--Ala--Gln--Pro--Phe--pNA] (Suc-AQPF-pNA)
3. C[C@H](NC(=O)CCC(=O)O)C(=O)N[C@@H](Cc1c[nH]cn1)C(=O)N1CCC[C@H]1C(=O)N[C@@H](Cc1ccccc1)C(=O)Nc1ccc([N+](=O)[O-])cc1 [Suc--Ala--His--Pro--Phe--pNA] (Suc-AHPF-pNA)
4. C[C@H](NC(=O)CCC(=O)O)C(=O)NCC(=O)N1CCC[C@H]1C(=O)N[C@@H](Cc1ccccc1)C(=O)Nc1ccc([N+](=O)[O-])cc1 [Suc--Ala--Gly--Pro--Phe--pNA] (Suc-AGPF-pNA)

[out]
0.00033
0.00367
0.001
0.00667

---

tested on: 10-12 kDa immunophilin; test: Rotamase (peptidyl-prolyl cis-trans isomerase) assay, 10-12 kDa immunophilin; format: biochemical; settings: rotamase activity with this peptide as substrate
Starred links: 1 amine or outer side, 2 acyl side, 3 side chain; linkers in the order of their positions; H or OH if unused. Residues, ends and D or L forms follow the SMILES beside them. *: point of attachment. pNA = O=[N+]([O-])c1ccc(N*)cc1; Suc = O=C(CCC(=O)[*:2])[*:1]
Everything with kobs, 10-12 kDa lower than 0.7 min^-1 is not fulfilled; everything else, including exactly 0.7 min^-1, is fulfilled.

Examples from the recorded data:
[in] Is reported kobs, 10-12 kDa greater than or equal to 0.7 min^-1 here: C[C@H](NC(=O)CCC(=O)O)C(=O)N[C@@H](CCC(N)=O)C(=O)N1CCC[C@H]1C(=O)N[C@@H](Cc1ccccc1)C(=O)Nc1ccc([N+](=O)[O-])cc1 [Suc--Ala--Gln--Pro--Phe--pNA] (Suc-AQPF-pNA)
[out] not fulfilled

[in] How about C[C@H](NC(=O)CCC(=O)O)C(=O)N[C@@H](CCCCN)C(=O)N1CCC[C@H]1C(=O)N[C@@H](Cc1ccccc1)C(=O)Nc1ccc([N+](=O)[O-])cc1 [Suc--Ala--Lys--Pro--Phe--pNA] ?
[out] not fulfilled

[in] How about CCCC[C@H](NC(=O)[C@H](C)NC(=O)CCC(=O)O)C(=O)N1CCC[C@H]1C(=O)N[C@@H](Cc1ccccc1)C(=O)Nc1ccc([N+](=O)[O-])cc1 [Suc--Ala--Nle--Pro--Phe--pNA] ?
[out] not fulfilled

[in] How about C[C@H](NC(=O)CCC(=O)O)C(=O)N[C@@H](Cc1c[nH]c2ccccc12)C(=O)N1CCC[C@H]1C(=O)N[C@@H](Cc1ccccc1)C(=O)Nc1ccc([N+](=O)[O-])cc1 [Suc--Ala--Trp--Pro--Phe--pNA] (Suc-AWPF-pNA) ?
[out] not fulfilled

[in] How about CC(C)C[C@H](NC(=O)[C@@H]1CCCN1C(=O)[C@H](C)NC(=O)[C@H](C)NC(=O)CCC(=O)O)C(=O)Nc1ccc([N+](=O)[O-])cc1 [Suc--Ala--Ala--Pro--Leu--pNA] (Suc-AAPL-pNA) ?
[out] fulfilled

Here is another molecule to look at.
[in] Is reported kobs, 10-12 kDa greater than or equal to 0.7 min^-1 here: C[C@H](NC(=O)CCC(=O)O)C(=O)N[C@@H](Cc1ccccc1)C(=O)N1CCC[C@H]1C(=O)N[C@@H](Cc1ccccc1)C(=O)Nc1ccc([N+](=O)[O-])cc1 [Suc--Ala--Phe--Pro--Phe--pNA]
[out] fulfilled

---

tested on: calf thymus 50-54 kDa immunophilin; experiment: Rotamase (peptidyl-prolyl cis-trans isomerase) assay, 50-54 kDa immunophilin; type: biochemical; conditions: rotamase activity with this peptide as substrate
Starred links: 1 amine or outer side, 2 acyl side, 3 side chain; linkers in the order of their positions; H or OH if unused. Residues, ends and D or L forms follow the SMILES beside them. *: point of attachment. pNA = O=[N+]([O-])c1ccc(N*)cc1; Suc = O=C(CCC(=O)[*:2])[*:1]
For each record, write down the corresponding kobs, 50-54 kDa.
One number for each entry, in s⁻¹.

Worked set:
[in] Form field: reported kobs, 50-54 kDa of C[C@H](NC(=O)CCC(=O)O)C(=O)N[C@@H](CCCCN)C(=O)N1CCC[C@H]1C(=O)N[C@@H](Cc1ccccc1)C(=O)Nc1ccc([N+](=O)[O-])cc1 [Suc--Ala--Lys--Pro--Phe--pNA]
[out] 0.004

[in] How about O=C(O)CCC(=O)N[C@@H](Cc1ccccc1)C(=O)N1CCC[C@H]1C(=O)N[C@@H](Cc1ccccc1)C(=O)Nc1ccc([N+](=O)[O-])cc1 [Suc--Phe--Pro--Phe--pNA] (Suc-Phe-Pro-Phe-pNA) ?
[out] 0.001

[in] How about C[C@H](NC(=O)CCC(=O)O)C(=O)N[C@@H](Cc1c[nH]c2ccccc12)C(=O)N1CCC[C@H]1C(=O)N[C@@H](Cc1ccccc1)C(=O)Nc1ccc([N+](=O)[O-])cc1 [Suc--Ala--Trp--Pro--Phe--pNA] (Suc-AWPF-pNA) ?
[out] 0.00233

Now let's try a different one.
[in] Form field: reported kobs, 50-54 kDa of CC(C)C[C@H](NC(=O)[C@@H]1CCCN1C(=O)[C@H](C)NC(=O)[C@H](C)NC(=O)CCC(=O)O)C(=O)Nc1ccc([N+](=O)[O-])cc1 [Suc--Ala--Ala--Pro--Leu--pNA] (Suc-AAPL-pNA)
[out] 0.0075

Cited source for all entries: patent US5780307A
